methodDescription: Half life in simulated gastrointestinal fluid
Type: ADME
# reported half-life; entries follow

Worked examples, 2 molecules total:
INSERT INTO assay_data (molecule, result) VALUES
  ('COC(=O)[C@H](C)NP(=O)(OC[C@H]1O[C@@H](n2cnc3c(N4CCC4)nc(N)nc32)[C@](C)(F)[C@@H]1O)Oc1ccccc1 (stereo partly drawn)', '> 20 h'),
  ('C[C@H](NP(=O)(OC[C@H]1O[C@@H](n2cnc3c(O)nc(N)nc32)[C@](C)(F)[C@@H]1O)Oc1ccccc1)C(=O)OC1CCCC1 (stereo partly drawn)', '15 h');

Now for another entry.
Exam item: Look up half-life: COc1nc(N)nc2c1ncn2[C@@H]1O[C@H](COP(=O)(N[C@@H](C)C(=O)OC(C)C)Oc2ccccc2)[C@@H](O)[C@@]1(C)F (stereo in doubt; 23)
Marked response: 14 h

###

methodDescription: Cytotoxicity against human […] cells after 96 hrs by MTS assay
Type: cell-based
measuredEndpoint: CC50 at 96 h (µM)
# value in µM; strip the unit string

Please review the entries below; each comes with its answer.
INSERT INTO measurements (compound, measuredendpoint, unitslabel, measurednumber) VALUES
  ('CC(C)OC(=O)[C@H](C)NP(=O)(OC[C@H]1O[C@@H](n2cnc3c(NC4CC4)nc(N)nc32)[C@](C)(F)[C@@H]1O)Oc1ccccc1 (some centres not stated)', 'CC50 at 96 h', 'µM', 98),
  ('CC(C)OC(=O)[C@H](C)NP(=O)(OC[C@H]1O[C@@H](n2cnc3c(N4CCC4)nc(N)nc32)[C@](C)(F)[C@@H]1O)Oc1ccccc1 (some centres not stated)', 'CC50 at 96 h', 'µM', 74);

Proceed to the following item.
Exam item: Any idea what its CC50 at 96 h is? The compound is CCOC(=O)[C@H](C)NP(=O)(OC[C@H]1O[C@@H](n2cnc3c(OCC)nc(N)nc32)[C@](C)(F)[C@@H]1O)Oc1ccccc1 (some centres not stated)
Marked response: 68

###

methodDescription: Cytotoxicity against human HepG2 cells after 96 hrs by MTS assay
Assay type: cell-based
measuredEndpoint: CC50 at 96 h

Examples with answers:
INSERT INTO measurements (compound, measuredendpoint, result) VALUES
  ('CC(C)OC(=O)[C@H](C)NP(=O)(OC[C@H]1O[C@@H](n2cnc3c(O)nc(N)nc32)[C@](C)(F)[C@@H]1O)Oc1ccccc1 (stereo partly drawn)', 'CC50 at 96 h', '> 100 µM'),
  ('CCCOc1nc(N)nc2c1ncn2[C@@H]1O[C@H](COP(=O)(N[C@@H](C)C(=O)OC(C)C)Oc2ccccc2)[C@@H](O)[C@@]1(C)F (stereo partly drawn)', 'CC50 at 96 h', '> 100 µM'),
  ('CCOC(=O)[C@H](C)NP(=O)(OC[C@H]1O[C@@H](n2cnc3c(N4CCC4)nc(N)nc32)[C@](C)(F)[C@@H]1O)Oc1ccccc1 (stereo partly drawn)', 'CC50 at 96 h', '75 µM'),
  ('COC(=O)[C@H](C)NP(=O)(OC[C@H]1O[C@@H](n2cnc3c(NC4CC4)nc(N)nc32)[C@](C)(F)[C@@H]1O)Oc1ccccc1 (stereo partly drawn)', 'CC50 at 96 h', '> 100 µM');

Exam item: // returns reported CC50 at 96 h for input C[C@H](NP(=O)(OC[C@H]1O[C@@H](n2cnc3c(O)nc(N)nc32)[C@](C)(F)[C@@H]1O)Oc1ccccc1)C(=O)OC1CCCCC1 (stereo partly drawn)
Marked response: > 100 µM

Exam item: Report CC50 at 96 h for CC(C)OC(=O)[C@H](C)NP(=O)(OC[C@H]1O[C@@H](n2cnc3c(NC4CC4)nc(N)nc32)[C@](C)(F)[C@@H]1O)Oc1ccccc1 (stereo partly drawn) please.
Marked response: > 100 µM

Exam item: Suppose we examine the compound CCOC(=O)[C@H](C)NP(=O)(OC[C@H]1O[C@@H](n2cnc3c(OCC)nc(N)nc32)[C@](C)(F)[C@@H]1O)Oc1ccccc1 (stereo partly drawn) ; what CC50 at 96 h value has been reported?
Marked response: 61 µM

Exam item: # input compound: CCOC(=O)[C@H](C)NP(=O)(OC[C@H]1O[C@@H](n2cnc3c(O)nc(N)nc32)[C@](C)(F)[C@@H]1O)Oc1ccccc1 (stereo partly drawn) ; wanted: its CC50 at 96 h
Marked response: > 100 µM

Exam item: Would you kindly share the measured CC50 at 96 h for COC(=O)[C@H](C)NP(=O)(OC[C@H]1O[C@@H](n2cnc3c(OC)nc(N)nc32)[C@](C)(F)[C@@H]1O)Oc1ccccc1 (stereo partly drawn) ?
Marked response: 71 µM

Exam item: Any idea what its CC50 at 96 h is? The compound is CC(C)OC(=O)[C@H](C)NP(=O)(OC[C@H]1O[C@@H](n2cnc3c(N4CCC4)nc(N)nc32)[C@](C)(F)[C@@H]1O)Oc1ccccc1 (stereo partly drawn)
Marked response: 100 µM

Exam item: Data request, read-out CC50 at 96 h, for CCOC(=O)[C@H](C)NP(=O)(OC[C@H]1O[C@@H](n2cnc3c(OC)nc(N)nc32)[C@](C)(F)[C@@H]1O)Oc1ccccc1 (stereo partly drawn)
Marked response: 62 µM

meta.source: ChEMBL document CHEMBL1671830
